Test system: human breast cancer MCF-7 cells
assaySummary: Cell proliferation assay on MCF-7 cells
Type: cell-based
measurementSetup: MCF7, read-out: IC50, growth inhibition
quantity: IC50 (µM)
Give your result in µM as a bare value.

# input Give the reported IC50 for this molecule. CN(C)c1cccc(-c2c3c(=O)n(-c4ccccc4Cl)[nH]c3cc(=O)n2C)c1 [GKT831]
# output 30
